test-name: cancer stem cell viability inhibitors, primary screen, luminescence (AID 2717)
experimental-conditions: cancer stem cell-like cells viability, at 7.5 µM
Among all 300,000 compounds or so, about 3,200 (1.1%) were called active. No stated cut-off is given here; in the data, active means inhibition above about 75%; inconclusive means no clear call, values can overlap the other calls; inactive means below that; tested in HMLE shEcad cells. The list comes from a sample in which actives are over-represented; it also holds close analogues and randomly drawn compounds.
Give one outcome, nothing more. List: true (1) = active, false (0) = inactive

// query Tell me the recorded outcome of this test for Cc1cccc2cc3c(N)c(C(=O)N4CCCc5ccccc54)sc3nc12 .
// result true (1)

// query Tell me the recorded outcome of this test for CCCc1cc(=O)[nH]c(SCC(=O)c2c(N)n(CC(C)C)c(=O)n(C)c2=O)n1 .
// result true (1)

// query Tell me the recorded outcome of this test for Cc1c(C(=O)N2CCCc3ccccc32)oc2ccccc12 .
// result false (0)

// query Tell me the recorded outcome of this test for Cc1c(C(=O)N2CCCc3ccccc32)sc2nc(-c3ccccc3)cn12 .
// result false (0)

// query Tell me the recorded outcome of this test for O=C(NCCC1=CCCCC1)c1ccc(-n2cncn2)cc1 .
// result false (0)

// query Tell me the recorded outcome of this test for Cc1cc(NC(=O)CN2C(=O)NC(CC(C)C)C2=O)no1 (stereo unspecified) .
// result false (0)
